Quantity: melting point

Compound | melting point
Nc1sc2c(c1C(=O)c1ccc(Cl)c(Cl)c1)CCCC2 [LUF5484] | 152 to 154 °C
COC(=O)c1ccc(C(=O)c2c(N)sc3c2CCCC3)cc1 [LUF5492] | 159 to 160 °C
CCc1c(C)sc(N)c1C(=O)c1cccc(Cl)c1 [LUF5472] | 99 to 102 °C

I would be grateful if you could share the reported melting point for Cc1ccc(C(=O)c2c(N)sc3c2CCCC3)cc1 [LUF5527] . 155 to 156 °C

Then CCc1c(C)sc(N)c1C(=O)c1ccc(Cl)cc1 [LUF5482] ? 108 to 110 °C

// query: Nc1sc2c(c1C(=O)c1ccc([N+](=O)[O-])cc1)CCCC2 [LUF5526] 202 to 204 °C

Same question for Nc1sc2c(c1C(=O)c1ccc(Br)cc1)CCCC2 [LUF5490] please. 152 to 153 °C

====

# Test System: S1P3 receptor (Homo sapiens, UniProt Q99500)
# Sequence (Q99500 whole entry): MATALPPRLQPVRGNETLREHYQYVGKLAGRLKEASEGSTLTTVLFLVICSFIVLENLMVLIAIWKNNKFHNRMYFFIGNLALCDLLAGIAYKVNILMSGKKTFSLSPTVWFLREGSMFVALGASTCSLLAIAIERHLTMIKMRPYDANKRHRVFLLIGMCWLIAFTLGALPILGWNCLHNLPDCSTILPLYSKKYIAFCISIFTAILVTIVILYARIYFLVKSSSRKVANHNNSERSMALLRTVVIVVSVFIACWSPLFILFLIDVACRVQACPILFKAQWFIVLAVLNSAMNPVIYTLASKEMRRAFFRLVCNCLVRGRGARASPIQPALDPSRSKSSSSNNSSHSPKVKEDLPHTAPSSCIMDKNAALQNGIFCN
# Measurement Description: cAMP accumulation assay at the S1P3 receptor (Lance cAMP 384 kit)
# Type: cell-based
# Protocol Conditions: S1P = 1.00, N.D. = not defined because the potency and/or the efficacy were too low
Quantity: efficacy (α) S1P3

Look over these answered cases.
Compound | Test System | efficacy (α) S1P3
Nc1sc2c(c1C(=O)c1ccccc1)CCCC2 | S1P3 receptor (Homo sapiens, UniProt Q99500) | >0.5
Nc1sc2c(c1C(=O)c1ccc(Br)cc1)CCCC2 | S1P3 receptor (Homo sapiens, UniProt Q99500) | 0.41
COC(=O)c1ccc(C(=O)c2c(N)sc3c2CCCC3)cc1 | S1P3 receptor (Homo sapiens, UniProt Q99500) | 0.25
CCCCCCCCCCCCC/C=C/[C@@H](O)[C@@H](N)COP(=O)(O)O [S1P, sphingosine-1-phosphate] | S1P3 receptor (Homo sapiens, UniProt Q99500) | 1.00
Cc1ccc(C(=O)c2c(N)sc3c2CCCC3)cc1 | S1P3 receptor (Homo sapiens, UniProt Q99500) | 0.96

Query compound follows.
Form field: reported efficacy (α) S1P3 of Nc1sc2c(c1C(=O)c1ccccc1Cl)CCCC2 0.71

====

EC50 values for the compounds below.
# Test System: S1P1 receptor (Homo sapiens, UniProt P21453)
# Sequence (P21453 whole entry): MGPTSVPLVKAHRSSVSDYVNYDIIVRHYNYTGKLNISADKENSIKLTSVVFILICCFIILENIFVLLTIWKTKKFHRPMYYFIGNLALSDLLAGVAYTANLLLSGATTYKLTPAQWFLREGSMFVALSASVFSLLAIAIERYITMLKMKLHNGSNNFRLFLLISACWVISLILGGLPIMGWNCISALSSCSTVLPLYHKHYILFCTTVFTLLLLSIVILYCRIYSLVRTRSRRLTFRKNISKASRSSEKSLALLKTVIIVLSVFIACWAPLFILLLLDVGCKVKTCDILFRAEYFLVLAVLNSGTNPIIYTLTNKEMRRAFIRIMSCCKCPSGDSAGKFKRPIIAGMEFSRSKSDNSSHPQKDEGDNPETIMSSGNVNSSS
# Measurement Description: cAMP accumulation assay at the S1P1 receptor (Lance cAMP 384 kit)
# Assay type: cell-based
# Protocol Conditions: N.D. = not defined because the potency and/or the efficacy were too low, read-out: pEC50 S1P1 (converted)
Field format: number, assumed µM, no unit text.

Past entries and their recorded results:
Compound | Unit | Recorded Value
Nc1sc2c(c1C(=O)c1cccc(I)c1)CCCC2 | µM | 1.38
Nc1sc2c(c1C(=O)c1ccccc1Cl)CCCC2 | µM | 4.17
CCCCCCCCCCCCC/C=C/[C@@H](O)[C@@H](N)COP(=O)(O)O [S1P, sphingosine-1-phosphate] | µM | 0.000138

Would you mind telling me what EC50 value was observed for Nc1sc2c(c1C(=O)c1cccc(Cl)c1)CCCC2 ? 1

====

# Test System: S1P3 receptor (Homo sapiens, UniProt Q99500)
# Measurement Description: cAMP accumulation assay at the S1P3 receptor (Lance cAMP 384 kit)
# Format: cell-based
# Protocol Conditions: N.D. = not defined because the potency and/or the efficacy were too low, read-out: pEC50 S1P3 (converted)
EC50 values for the compounds below.

These recorded examples may help you get a feel for the data.
Compound | Quantity | Recorded Value
Nc1sc2c(c1C(=O)c1ccc(I)cc1)CCCC2 | EC50 | > 10 µM
Nc1sc2c(c1C(=O)c1ccc(C(F)(F)F)cc1)CCCC2 | EC50 | > 10 µM
COC(=O)c1ccc(C(=O)c2c(N)sc3c2CCCC3)cc1 | EC50 | 0.933 µM
Nc1sc2c(c1C(=O)c1ccccc1)CCCC2 | EC50 | > 10 µM
Nc1sc2c(c1C(=O)c1cccc(Cl)c1)CCCC2 | EC50 | 1.86 µM
Nc1sc2c(c1C(=O)c1ccc(Cl)c(Cl)c1)CCCC2 | EC50 | > 10 µM
CCc1c(C)sc(N)c1C(=O)c1ccccc1 | EC50 | > 10 µM
CCCCCCCCCCCCC/C=C/[C@@H](O)[C@@H](N)COP(=O)(O)O [S1P, sphingosine-1-phosphate] | EC50 | 0.000347 µM

Turning to the following compound.
Consider the compound shown here: Nc1sc(CN2C(=O)c3ccccc3C2=O)cc1C(=O)c1cccc(C(F)(F)F)c1 What is its recorded EC50? > 10 µM

====

Quantity: melting point

Sample records with melting point:
Compound Structure String | melting point
Nc1sc2c(c1C(=O)c1cccc(I)c1)CCCC2 | 160 to 162 °C
Nc1sc2c(c1C(=O)c1ccc(C(F)(F)F)cc1)CCCC2 | 145 to 147 °C
Nc1sc2c(c1C(=O)c1cccc(Cl)c1)CCCC2 | 114 to 115 °C

Recorded melting point for Nc1sc2c(c1C(=O)c1ccc(C(=O)O)cc1)CCCC2 , please? 232 to 233 °C

Same question, Nc1sc2c(c1C(=O)c1ccccc1Cl)CCCC2 this time 145 to 147 °C

And then Nc1sc(CN2C(=O)c3ccccc3C2=O)cc1C(=O)c1cccc(C(F)(F)F)c1 , what is it? 199 to 200 °C

Now the same for CCc1c(C)sc(N)c1C(=O)c1ccccc1 129 to 131 °C

Try the compound Nc1sc2c(c1C(=O)c1cccc(C(F)(F)F)c1)CCCC2 122 to 123 °C

Also, Cc1sc(N)c(C(=O)c2ccc(Cl)cc2)c1C please. 123 to 125 °C

Now try Cc1sc(N)c(C(=O)c2cccc(Cl)c2)c1C . 114 to 116 °C

Same lookup for Nc1sc2c(c1C(=O)c1ccc(I)cc1)CCCC2 , please. 150 to 152 °C

Entry to check: CCc1c(C)sc(N)c1C(=O)c1cccc(C(F)(F)F)c1 100 to 101 °C

Repeat with Nc1sc(-c2ccccc2)cc1C(=O)c1ccc(Cl)cc1 173 to 175 °C

Origin of measurements: patent US20100317709A1
